- System: SK-MEL-5
- Experiment: Growth inhibition of human SK-MEL-5 cells after 72 hrs by SRB assay
- Type: functional, cell-based
- Measurement context: SK-MEL-5, 72 h
The entries below come with measured IC50 values attached.

| Structure as smiles | IC50 |
| --- | --- |
| O=C(CCC(c1ccccc1)(c1ccccc1)c1ccccc1)NCCc1ccccc1 | 5.5 µM |
| COC(=O)[C@@H](Cc1ccccc1)NC(=O)CC(c1ccccc1)(c1ccccc1)c1ccccc1 | 5.1 µM |
| O=C(NCCc1ccccc1)C(c1ccccc1)(c1ccccc1)c1ccccc1 | 5.8 µM |
| COC(=O)[C@@H](Cc1ccccc1)NC(=O)CCCC(c1ccccc1)(c1ccccc1)c1ccccc1 | 5.8 µM |
| COC(=O)[C@@H](Cc1ccccc1)NC(=O)C(c1ccccc1)(c1ccc(O)cc1)c1ccc(O)cc1 | 6.7 µM |
| O=C(CCCC(c1ccccc1)(c1ccccc1)c1ccccc1)NCCc1ccccc1 | 5.4 µM |
| COC(=O)[C@@H](Cc1ccccc1)NC(=O)C(c1ccc(OC)cc1)(c1ccc(OC)cc1)c1ccc(OC)cc1 | 49 µM |

* * *

The entries below come with measured solubility values attached.
- Experiment: Aqueous solubility in phosphate-buffered saline at pH 7.4
- Assay type: physicochemical
- Measurement context: read-out: Stability
Result type: solubility (µM)

| Structure as smiles | Unit of measure | Measured number |
| --- | --- | --- |
| O=C(NCCc1ccccc1)C(c1ccccc1)(c1ccccc1)c1ccc(O)c(O)c1 | µM | 80 |
| COC(=O)[C@@H](Cc1ccccc1)NC(=O)C(c1ccccc1)(c1ccccc1)c1ccccc1 | µM | 20 |

* * *

- Tested on: SK-MEL-5
- Experiment: Growth inhibition of human SK-MEL-5 cells after 72 hrs by SRB assay
- Type: functional, cell-based
- Measurement context: SK-MEL-5, 72 h
pIC50: −log10 of the molar value.

| Structure as smiles | pIC50 |
| --- | --- |
| O=C(CC(c1ccccc1)(c1ccccc1)c1ccccc1)NCCc1ccccc1 | 4.77 |
| O=C(NCCc1ccccc1)C(c1ccccc1)(c1ccc(O)cc1)c1ccc(O)cc1 | 5.07 |
| COC(=O)[C@@H](Cc1ccccc1)NC(=O)C1(c2ccccc2)c2ccccc2-c2ccccc21 | 4.64 |
| COC(=O)[C@@H](Cc1ccccc1)NC(=O)C(c1ccccc1)(c1ccccc1)c1ccc(O)cc1 | 5.09 |
| COc1ccc(C(C(=O)NCCc2ccccc2)(c2ccc(OC)cc2)c2ccc(OC)cc2)cc1 | 4.70 |
| COC(=O)[C@@H](Cc1ccccc1)NC(=O)C(c1ccccc1)(c1ccccc1)c1ccccc1 | 5.24 |
| O=C(NCCc1ccccc1)C(c1ccccc1)(c1ccccc1)c1ccc(O)cc1 | 5.09 |
| O=C(NCCc1ccccc1)C(c1ccc(O)cc1)(c1ccc(O)cc1)c1ccc(O)cc1 | 4.44 |
| COC(=O)[C@@H](Cc1ccccc1)NC(=O)CCC(c1ccccc1)(c1ccccc1)c1ccccc1 | 5.60 |

* * *

- System: HL-60
- Experiment: Cell cycle arrest in human HL60 cells assessed as accumulation at G1 phase at 20 uM after 6 hrs by flow cytometry using propidium iodide staining
- Type: functional, cell-based
The source made the active and inactive calls. The rule behind the calls is not given here.

| Structure as smiles | Activity |
| --- | --- |
| O=C(NCCc1ccccc1)C(c1ccccc1)(c1ccccc1)c1ccc(O)c(O)c1 | Active |
| O=C(NCCc1ccccc1)C(c1ccccc1)(c1ccccc1)c1ccccc1 | Active |
| O=C(CCCC(c1ccccc1)(c1ccccc1)c1ccccc1)NCCc1ccccc1 | Active |
| COc1ccc(C(C(=O)NCCc2ccccc2)(c2ccccc2)c2ccc(OC)cc2)cc1 | Active |
| COc1ccc(C(C(=O)NCCc2ccccc2)(c2ccccc2)c2ccccc2)cc1 | Active |
| COC(=O)[C@@H](Cc1ccccc1)NC(=O)C(c1ccccc1)(c1ccccc1)c1ccccc1 | Active |

* * *

- Test system: MCF7
- Experiment: Antiproliferative activity against human MCF7 cells after 72 hrs by SRB assay
- Assay type: functional, cell-based
- Measurement context: MCF7, 72 h
Result type: IC50

| Structure as smiles | Tested on | Result type | Result |
| --- | --- | --- | --- |
| O=C(NCCc1ccccc1)C(c1ccccc1)(c1ccccc1)c1ccc(O)c(O)c1 | MCF7 | IC50 | 8.1 µM |
| COC(=O)[C@@H](Cc1ccccc1)NC(=O)CCC(c1ccccc1)(c1ccccc1)c1ccccc1 | MCF7 | IC50 | 6.1 µM |
| O=C(NCCc1ccccc1)C(c1ccccc1)(c1ccccc1)c1ccccc1 | MCF7 | IC50 | 7.1 µM |
| COC(=O)[C@@H](Cc1ccccc1)NC(=O)C(c1ccccc1)(c1ccccc1)c1ccccc1 | MCF7 | IC50 | 8 µM |

* * *

- Tested on: HL-60
- Experiment: Antiproliferative activity against human HL60 cells after 72 hrs by SRB assay
- Assay type: functional, cell-based
- Measurement context: HL-60, 72 h
pIC50: −log10 of the molar value.

| Structure as smiles | pIC50 |
| --- | --- |
| COC(=O)[C@@H](Cc1ccccc1)NC(=O)CCC(c1ccccc1)(c1ccccc1)c1ccccc1 | 5.22 |
| O=C(NCCc1ccccc1)C(c1ccccc1)(c1ccccc1)c1ccccc1 | 5.11 |
| COC(=O)[C@@H](Cc1ccccc1)NC(=O)C(c1ccccc1)(c1ccccc1)c1ccccc1 | 5.14 |
| O=C(NCCc1ccccc1)C(c1ccccc1)(c1ccccc1)c1ccc(O)c(O)c1 | 5.21 |

* * *

- Test system: SK-MEL-5
- Experiment: Growth inhibition of human SK-MEL-5 cells after 72 hrs by SRB assay
- Type: functional, cell-based
- Measurement context: SK-MEL-5, 72 h
Please use the following IC50 ranges when assigning a class: band A: < 9 µM; band B: ≥ 9 µM and < 20 µM; band C: ≥ 20 µM

| Structure as smiles | Tested on | Answer label |
| --- | --- | --- |
| COC(=O)[C@@H](Cc1ccccc1)NC(=O)C(c1ccccc1)(c1ccccc1)c1ccc(OC)cc1 | SK-MEL-5 | band A |
| COC(=O)[C@@H](Cc1ccccc1)NC(=O)C(c1ccc(O)cc1)(c1ccc(O)cc1)c1ccc(O)cc1 | SK-MEL-5 | band B |
| O=C(NCCc1ccccc1)C(c1ccccc1)(c1ccccc1)c1ccc(O)c(O)c1 | SK-MEL-5 | band A |
| COC(=O)[C@@H](Cc1ccccc1)NC(=O)C(c1ccccc1)(c1ccccc1)c1cccs1 | SK-MEL-5 | band B |
| COc1ccc(C(C(=O)NCCc2ccccc2)(c2ccccc2)c2ccc(OC)cc2)cc1 | SK-MEL-5 | band B |
| COc1ccc(C(C(=O)NCCc2ccccc2)(c2ccccc2)c2ccccc2)cc1 | SK-MEL-5 | band C |
| COC(=O)[C@@H](Cc1ccccc1)NC(=O)C(c1ccccc1)(c1ccc(OC)cc1)c1ccc(OC)cc1 | SK-MEL-5 | band C |

* * *

The entries below come with measured pIC50 values attached.
- Test system: U-937
- Experiment: Antiproliferative activity against human U937 cells after 72 hrs by SRB assay
- Format: functional, cell-based
- Measurement context: U-937, 72 h
pIC50: −log10 of the molar value.

| Structure as smiles | Tested on | pIC50 |
| --- | --- | --- |
| O=C(NCCc1ccccc1)C(c1ccccc1)(c1ccccc1)c1ccccc1 | U-937 | 5.02 |
| COC(=O)[C@@H](Cc1ccccc1)NC(=O)CCC(c1ccccc1)(c1ccccc1)c1ccccc1 | U-937 | 5.17 |
| O=C(NCCc1ccccc1)C(c1ccccc1)(c1ccccc1)c1ccc(O)c(O)c1 | U-937 | 5.23 |
| COC(=O)[C@@H](Cc1ccccc1)NC(=O)C(c1ccccc1)(c1ccccc1)c1ccccc1 | U-937 | 5.14 |
